Ref: patent US20240059799A1

# targetOfAssay: T1, recombinant human TL1A (human, UniProt O95150 71-251)
# T1 construct: homotrimer; biotinylated for SPR capture; the ELISA paragraphs say only 'recombinant TL1A'; also called TNFSF15
# T1 chain: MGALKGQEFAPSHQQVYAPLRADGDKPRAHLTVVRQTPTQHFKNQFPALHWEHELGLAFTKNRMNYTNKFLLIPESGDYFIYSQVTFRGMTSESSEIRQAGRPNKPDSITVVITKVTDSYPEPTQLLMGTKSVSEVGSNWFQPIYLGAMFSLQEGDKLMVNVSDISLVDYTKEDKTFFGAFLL
# testName: competition ELISA vs bio-TL1A-0002
# Bioactivity relative to TL1A-0002 per record follows
Output spec: scalar in fold, unitless text.

Guide cases for Bioactivity relative to TL1A-0002, answers given:
binder: TL1A-0043 (antibody, human IgG1, kappa, V domains shown, IgG1/kappa; VL graft on IGKV3D-7*01) VH: QVQLVQSGAEVKKPGASVKVSCKASGYDFTYYGISWVRQAPGQGLEWMGWISTYNGNTHYARMLQGRVTMTTDTSTRTAYMELRSLRSDDTAVYYCARENYYGSGAYRGGMDVWGQGTTVTVSS VL: EIVMTQSPATLSLSPGERATLSCRASQSVSSYLAWYQQKPGQAPRLLIYDASNRATGIPARFSGSGSGTDFTLTISSLQPEDFAVYYCQQRSNWPWTFGQGTKVEIKR
unitSymbol: fold
Bioactivity relative to TL1A-0002: 0.9
//
binder: TL1A-0055 (antibody, human IgG1, kappa, V domains shown, IgG1/kappa; IGHV3-7*01 / IGKV3D-7*01 grafts) VH: EVQLVESGGGLVQPGGSLRLSCAASGYDFTYYGISWVRQAPGKGLEWVAWISTYNGNTHYARMLQGRFTISRDNAKNSLYLQMNSLRAEDTAVYYCARENYYGSGAYRGGMDVWGQGTTVTVSS VL: EIVMTQSPATLSLSPGERATLSCRASQSVSSYLAWYQQKPGQAPRLLIYDASNRATGIPARFSGSGSGTDFTLTISSLQPEDFAVYYCQQRSNWPWTFGQGTKVEIKR
unitSymbol: fold
Bioactivity relative to TL1A-0002: 1
//
binder: TL1A-0056 (antibody, human IgG1, kappa, V domains shown, IgG1/kappa; IGHV1-2*02 / IGKV3D-7*01 grafts) VH: QVQLVQSGAEVKKPGASVKVSCKASGYDFTYYGISWVRQAPGQGLEWMGWISTYNGNTHYARMLQGRVTMTRDTSISTAYMELSRLRSDDTAVYYCARENYYGSGAYRGGMDVWGQGTTVTVSS VL: EIVMTQSPATLSLSPGERATLSCRASQSVSSYLAWYQQKPGQAPRLLIYDASNRATGIPARFSGSGSGTDFTLTISSLQPEDFAVYYCQQRSNWPWTFGQGTKVEIKR
unitSymbol: fold
Bioactivity relative to TL1A-0002: 0.8
//
binder: TL1A-0053 (antibody, human IgG1, kappa, V domains shown, IgG1/kappa; IGHV1-46*01 / IGKV3D-7*01 grafts) VH: QVQLVQSGAEVKKPGASVKVSCKASGYDFTYYGISWVRQAPGQGLEWMGWISTYNGNTHYARMLQGRVTMTRDTSTSTVYMELSSLRSEDTAVYYCARENYYGSGAYRGGMDVWGQGTTVTVSS VL: EIVMTQSPATLSLSPGERATLSCRASQSVSSYLAWYQQKPGQAPRLLIYDASNRATGIPARFSGSGSGTDFTLTISSLQPEDFAVYYCQQRSNWPWTFGQGTKVEIKR
unitSymbol: fold
Bioactivity relative to TL1A-0002: 1

Task item: Determine its reported Bioactivity relative to TL1A-0002: TL1A-0042 (antibody, human IgG1, kappa, V domains shown, TL1A-0002 heavy chain with light chain CDRs grafted on IGKV1-39*01 (DPK9)) VH: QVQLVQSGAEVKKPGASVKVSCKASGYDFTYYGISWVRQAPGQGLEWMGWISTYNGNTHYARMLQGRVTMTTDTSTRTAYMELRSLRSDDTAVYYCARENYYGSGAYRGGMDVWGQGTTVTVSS VL: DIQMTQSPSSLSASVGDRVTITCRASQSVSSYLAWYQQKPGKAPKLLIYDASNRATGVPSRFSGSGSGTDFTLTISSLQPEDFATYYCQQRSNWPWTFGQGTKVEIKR
Reply: 0.9
